This collection of values is drawn from the supplement of paper PMC10567573.

B1: PKD2L1 (parent)
chain: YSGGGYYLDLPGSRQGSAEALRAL

Variants of: B1
Test: protein stability index of a GFP-peptide fusion (GPS, HEK-293T) (PSI 1-6); higher = more stable;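 also: lentivirally expressed fusions sorted by FACS into six bins by GFP to DsRed ratio, PSI derived from sequencing read proportions per bin multiplied by bin number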
Conditions: c terminus: a fixed tail appended
# label = True if protein stability index >= 2 else False

Could you verify whether the entry YSGGGYYLDLPGSRQGSAEALRFL [A23F] shows protein stability index of no less than 2?
True

Could you verify whether the entry YSGGGYYLDLPGSRQGSAESLRAL [A20S] shows protein stability index of no less than 2?
True

Could you verify whether the entry YSGGGYYLDLPKSRQGSAEALRAL [G12K] shows protein stability index of no less than 2?
False

Could you verify whether the entry YRGGGYYLDLPGSRQGSAEALRAL [S2R] shows protein stability index of no less than 2?
True
